Molecular target: IDO (Homo sapiens)
Construct: endogenous in cells; host or cells: human PBMCs (peripheral blood mononuclear cells), unstimulated or PHA-stimulated
Experiment: IDO inhibition in vitro with human PBMCs (kynurenine production)
Format: cell-based
Details: PHA stimulated per Table 3
Excerpt: The purpose of this in vitro study was to measure the IC50 values of IDO in PBMCs for 1) calcium pterin, CaCl2, and pterin to determine measurable synergistic effects between Ca^+2 and pterin, and 2) to compare these values with those of DCP for the assessment of relative IDO inhibitory strength. […]
pIC50: −log10 of the molar value.
attribute.measured: pIC50

compound: Nc1nc([O-])c2nccnc2n1.Nc1nc([O-])c2nccnc2n1.[Ca+2] [DCP, dipterinyl calcium pentahydrate]
numeric.readout: 3.49

---

Target: IDO (Homo sapiens, UniProt P14902)
Construct: endogenous in cells; host or cells: human PBMCs (peripheral blood mononuclear cells), unstimulated or PHA-stimulated
Sequence (P14902 whole entry): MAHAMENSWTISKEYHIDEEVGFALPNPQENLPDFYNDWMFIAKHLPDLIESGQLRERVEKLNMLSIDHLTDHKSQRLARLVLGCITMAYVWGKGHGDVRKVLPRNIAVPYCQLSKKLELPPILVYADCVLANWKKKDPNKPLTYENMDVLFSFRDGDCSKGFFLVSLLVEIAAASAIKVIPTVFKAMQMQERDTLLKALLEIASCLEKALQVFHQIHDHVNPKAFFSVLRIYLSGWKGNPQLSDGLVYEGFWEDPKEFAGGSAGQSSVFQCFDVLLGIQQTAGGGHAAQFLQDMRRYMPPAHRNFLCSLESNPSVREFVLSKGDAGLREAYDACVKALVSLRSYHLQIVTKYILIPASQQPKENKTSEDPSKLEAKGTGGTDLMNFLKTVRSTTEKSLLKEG
Test: IDO inhibition in vitro with human PBMCs (kynurenine production)
Assay type: cell-based
Conditions: unstimulated per Table 3
pIC50: −log10 of the molar value.

compound: Nc1nc([O-])c2nccnc2n1.Nc1nc([O-])c2nccnc2n1.[Ca+2] [DCP, dipterinyl calcium pentahydrate]
test.target: IDO (Homo sapiens, UniProt P14902)
pIC50: 3.33

Data provenance: patent US20120251495A1
